Target: PKMYT1 enzyme (Homo sapiens, UniProt Q99640)
Construct: purchased Thermo Scientific A33387
Sequence (Q99640 whole entry): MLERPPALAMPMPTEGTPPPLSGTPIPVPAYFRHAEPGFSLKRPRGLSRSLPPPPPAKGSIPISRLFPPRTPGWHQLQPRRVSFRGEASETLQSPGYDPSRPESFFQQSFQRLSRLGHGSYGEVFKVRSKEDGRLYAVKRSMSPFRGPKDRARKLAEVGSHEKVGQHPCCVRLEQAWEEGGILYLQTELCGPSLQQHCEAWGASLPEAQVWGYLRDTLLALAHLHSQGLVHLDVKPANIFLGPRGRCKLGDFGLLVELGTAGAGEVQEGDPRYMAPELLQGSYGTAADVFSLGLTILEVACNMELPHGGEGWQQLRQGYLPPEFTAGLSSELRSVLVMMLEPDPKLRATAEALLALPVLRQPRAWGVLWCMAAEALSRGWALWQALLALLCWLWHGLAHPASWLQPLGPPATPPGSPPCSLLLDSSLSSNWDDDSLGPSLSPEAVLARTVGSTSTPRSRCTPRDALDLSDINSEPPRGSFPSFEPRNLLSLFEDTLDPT
Assay: PKMYT1 enzyme inhibition activity, ADP-GLO method
Format: biochemical
Details: PKMYT1 enzyme 10 nM, ATP 5 µM, 37°C 90 minutes; read-out: ADP-GLO IC50
Below, each entry is listed with its recorded IC50.

Molecule	IC50
Cc1nc(C2CC2)c2c(C(N)=O)c(N)n(-c3c(C)ccc(O)c3C)c2n1 (atropisomer, axis not shown) [Example 62.2]	14.4 nM
Cc1c(O)cc(F)c(C)c1-n1c(N)c(C(N)=O)c2cc(-c3ccccc3)cnc21 (racemic) [Example 119]	15.2 nM
COc1c(O)ccc(C)c1-n1c(N)c(C(N)=O)c2cc(C)c(C)nc21	408 nM
Cc1ccc(O)c(C)c1-n1c(N)c(C(N)=O)c2cnc(N)nc21	23.6 nM
Cc1ncc2c(C(N)=O)c(N)n(-c3c(C)cc(F)c(O)c3C)c2n1	23.8 nM
